System: Malme-3M
ASSAY INFO: Growth inhibition of human MALME-3M cells at 10 uM after 48 hrs by coulter counter analysis
Format: functional
TEST CONTEXT: read-out: GI
ASSAY ENDPOINT: inhibition of growth at 10 µM

Here is how some compounds turned out for inhibition of growth at 10 µM.
Give the reported value of inhibition of growth at 10 µM for this record: CCOC(=O)c1sc(NC(=O)C(C)N2CCOCC2)nc1C (stereo unspecified) < 10%

Give the reported value of inhibition of growth at 10 µM for this record: CCOC(=O)c1sc(NC(=O)C(C)N2CCN(C)CC2)nc1C (stereo unspecified) < 10%

Give the reported value of inhibition of growth at 10 µM for this record: CCOC(=O)c1sc(NC(=O)C(C)N(CC)CC)nc1C (stereo unspecified) < 10%

Give the reported value of inhibition of growth at 10 µM for this record: CCOC(=O)c1sc(NC(=O)CCN2CCN(c3ccccc3)CC2)nc1C 12%

Give the reported value of inhibition of growth at 10 µM for this record: Cc1cnc(NC(=O)CCN2CCN(c3ccccc3)CC2)s1 < 10%

***
Give the reported value of inhibition of growth at 10 µM for this record: CCOC(=O)c1sc(NC(=O)CCN2CCN(C)CC2)nc1C < 10%

Where these numbers come from: ChEMBL document CHEMBL2040727
